From: paper PMC6843786

System: H. pylori (ATCC 43504)
test.settings: ATCC 43504, 24 h
Non-standard residues stand in square brackets, D forms with d. Residues, ends and D or L forms follow the SMILES beside them.
Below, each entry is listed alongside its reported MIC on H. pylori (ATCC 43504).
Record the value in µM, omitting the unit from your answer.

compound	endpoint.unit	MIC on H. pylori (ATCC 43504)
CC[C@H](C)[C@H](NC(=O)CNC(=O)[C@H](CO)NC(=O)[C@H](CC(C)C)NC(=O)[C@@H](N)Cc1ccccc1)C(=O)N[C@H](C(=O)N[C@H](C)C(=O)N[C@@H](CCSC)C(=O)N[C@@H](CC(C)C)C(=O)N[C@H](C)C(=O)N[C@@H](CCCCN)C(=O)N[C@@H](CC(C)C)C(=O)N[C@@H](Cc1ccccc1)C(N)=O)C(C)C [NST6] (H-FLSGIV[dA]ML[dA]KLF-NH2)	µM	3.12

Now look at this one.
input: Form entry - test system: H. pylori (ATCC 43504); read-out: MIC on H. pylori (ATCC 43504); compound: CC[C@H](C)[C@H](NC(=O)CNC(=O)[C@H](CO)NC(=O)[C@H](CC(C)C)NC(=O)[C@@H](N)Cc1ccccc1)C(=O)N[C@H](C(=O)N[C@H](C)C(=O)N[C@@H](CCSC)C(=O)N[C@@H](CC(C)C)C(=O)NCC(=O)N[C@@H](CCCCN)C(=O)N[C@@H](CC(C)C)C(=O)N[C@@H](Cc1ccccc1)C(N)=O)C(C)C [NST3] (H-FLSGIV[dA]MLGKLF-NH2)
output: 3.12
